- System name: human D2R/β-arrestin (Homo sapiens (Human))
- Sequence (P14416 whole entry): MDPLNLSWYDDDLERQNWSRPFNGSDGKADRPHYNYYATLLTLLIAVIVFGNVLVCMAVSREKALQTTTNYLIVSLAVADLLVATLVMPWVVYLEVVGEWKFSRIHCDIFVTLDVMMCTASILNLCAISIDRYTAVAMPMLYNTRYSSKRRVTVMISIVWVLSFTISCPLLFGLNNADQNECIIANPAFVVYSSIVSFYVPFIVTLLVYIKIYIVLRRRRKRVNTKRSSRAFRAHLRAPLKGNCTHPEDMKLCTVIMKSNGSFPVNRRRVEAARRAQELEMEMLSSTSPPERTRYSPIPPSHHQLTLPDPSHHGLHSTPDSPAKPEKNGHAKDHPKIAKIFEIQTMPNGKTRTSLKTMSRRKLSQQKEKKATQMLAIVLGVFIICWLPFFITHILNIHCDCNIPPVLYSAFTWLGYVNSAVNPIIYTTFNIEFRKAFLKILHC
- Test context: read-out: β-arrestin Antagonist
Recorded metric: IC50

{"columns": ["Molecule", "IC50"],
 "data": [
  ["O=C(NC(c1cccc(F)c1)c1ccccn1)C1CCN(CCOc2ccccc2)CC1 (stereo not shown) [Compound 27]", "1000 to 10000 nM"],
  ["O=C(NC(c1ccccc1)c1ccc(F)cc1)C1CCN(CCOc2ccccc2)CC1 (single isomer, unassigned) [Compound 45b]", "100 to 1000 nM"],
  ["O=C(NC(c1ccc(Cl)cc1)c1ccccc1F)C1CCN(CCOc2ccccc2F)CC1 (single isomer, unassigned) [Compound 96a]", "1000 to 10000 nM"],
  ["O=C(NC(c1ccc(F)cc1)c1ccc(Cl)cc1)C1CCN(CCOc2ccccc2)CC1 (single isomer, unassigned) [Compound 42a]", "100 to 1000 nM"],
  ["O=C(NC(c1ccc2c(c1)OCO2)c1ccccn1)C1CCN(CCOc2ccccc2F)CC1 (single isomer, unassigned) [Compound 95b]", "100 to 1000 nM"]
]}

Tell me the measured IC50 of O=C(NC(c1ccc(F)cc1)c1ccc(Cl)cc1)C1CCN(CCOc2ccccc2)CC1 (single isomer, unassigned) [Compound 42b] , please.
1000 to 10000 nM

Tell me the measured IC50 of COc1cccc(C(NC(=O)C2CCN(CCOc3ccccc3F)CC2)c2ccccn2)c1 (single isomer, unassigned) [Compound 22a] , please.
100 to 1000 nM

Tell me the measured IC50 of CC1(C(=O)NC(c2ccc(F)cc2)c2ccccn2)CCN(CCOc2ccccc2C(F)(F)F)CC1 (single isomer, unassigned) [Compound 70b] , please.
1000 to 10000 nM
